Below is a list of entries, each paired with its recorded inhibition value.
system: Plasmodium falciparum; assay: GSK_TCMDC: Inhibition of Plasmodium falciparum 3D7 LDH activity, using an LDH reporter assay. Test compounds present at 2uM; format: functional, organism-based
Hit rate of the full screen: of about 13,000 compounds, fewer than 10 showed an effect of 50% or more. Not all results are given here.
MEASURED METRIC: inhibition (%)

[[record]]
molecule = "Cc1cccc2nc(-c3ccc(-c4ccc(NC(=O)C(=O)c5cccn5C)cc4)cc3)[nH]c12"
tgt = "Plasmodium falciparum"
measured_metric = "inhibition"
reported_value = 8

[[record]]
molecule = "CCC(=O)N(c1ccccc1)C1CCN(CCCC(NC(=O)c2cc(C(F)(F)F)cc(C(F)(F)F)c2)c2ccc(Cl)c(Cl)c2)CC1 (configuration not stated)"
tgt = "Plasmodium falciparum"
measured_metric = "inhibition"
reported_value = 0

[[record]]
molecule = "Cc1cc(NCC(c2ccccc2)c2ccccc2)nc(NCC2CCCCC2)n1"
tgt = "Plasmodium falciparum"
measured_metric = "inhibition"
reported_value = 3

[[record]]
molecule = "CCCCCCOc1ccc(C(=O)N(Cc2ccccc2)c2c(-c3ccccc3)nc3cc(C)ccn23)cc1"
tgt = "Plasmodium falciparum"
measured_metric = "inhibition"
reported_value = 3

[[record]]
molecule = "CCOc1ccccc1NC(=O)C(Sc1nc(C)cc(C)c1C#N)c1ccccc1 (configuration not stated)"
tgt = "Plasmodium falciparum"
measured_metric = "inhibition"
reported_value = 0

[[record]]
molecule = "O=C(C=Cc1ccc(Cl)c(Cl)c1)NCCCCCN1CCC(CCNC(=O)/C=C/c2ccccc2)CC1"
tgt = "Plasmodium falciparum"
measured_metric = "inhibition"
reported_value = 0

[[record]]
molecule = "CCn1c(-c2nonc2N)nc2c(-c3ccccc3)ncc(OCCCCNCCc3ncc[nH]3)c21"
tgt = "Plasmodium falciparum"
measured_metric = "inhibition"
reported_value = 0

[[record]]
molecule = "CCN(CCCN1CCCCC1)c1cc(C)nc(Nc2cccc(C(F)(F)F)c2C)n1"
tgt = "Plasmodium falciparum"
measured_metric = "inhibition"
reported_value = 0

[[record]]
molecule = "COc1cc(NC(=O)C(c2ccc(Cl)cc2)C(C)C)cc(OC)c1 (configuration not stated)"
tgt = "Plasmodium falciparum"
measured_metric = "inhibition"
reported_value = 0

[[record]]
molecule = "Fc1ccc2[nH]c(-c3cccc(-c4cccc(CN5CCN(c6cnccn6)CC5)c4)c3)nc2c1"
tgt = "Plasmodium falciparum"
measured_metric = "inhibition"
reported_value = 0

[[record]]
molecule = "CN(C)c1ccc(-c2nc3cc(N)ccc3[nH]2)cc1"
tgt = "Plasmodium falciparum"
measured_metric = "inhibition"
reported_value = 0

[[record]]
molecule = "O=C(NCCc1ccccc1)N(Cc1ccccc1-c1ccc(CNC2CCCC2)cc1)C1CCN(Cc2ccccc2)CC1"
tgt = "Plasmodium falciparum"
measured_metric = "inhibition"
reported_value = 1

